Parameter: Kd. Scope: all listed entries.
# experimental system: T1, TAZ2 domain (residues 1764–1855) of wild-type mouse CBP (mouse, UniProt P45481 1764-1855)
# T1 sequence (looked up): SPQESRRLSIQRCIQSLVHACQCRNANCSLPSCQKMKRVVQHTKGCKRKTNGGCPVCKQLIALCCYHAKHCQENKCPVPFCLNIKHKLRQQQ
# procedure details: fluorescence polarisation
Where no end group is shown, it is not given here.
I only need the number, in µM, no unit after it.

See these solved cases before continuing.
HPV16 E7(1–51), unphosphorylated (domain or fragment) MHGDTPTLHEYMLDLQPETTDLYCYEQLNDSSEEEDEIDGPAGQAEPDRAH : 0.1
MHGDTPTLHEYMLDLQPE-NH2 [E7 CR1 peptide (residues 1–18)] : 31

The value of Kd measured for the binder PETTDLYCYEQLNDSSEEEDEIDGPAGQAEPDRAH (domain or fragment) [HPV16 E7(17–51), unphosphorylated] turned out to be 1.8

The value of Kd measured for the binder ETTDLYCYEQLNDSSEEEDE [E7 CR2 peptide (residues 18–37)] turned out to be 4.6
